Tested on: BXPC-3
PROTOCOL_DETAILS: Induction of apoptosis in human BxPC3 cells assessed as accumulation at sub-G0/G1 phase at 10 uM after 72 hrs by propidium iodide staining based flow cytometry (reference value: 3.4%)
Format: functional
The label depends only on Activity: Met if it is at least 10%, Not met if it is smaller.

Some solved cases for reference:
| COMPOUND | ANSWER_LABEL |
| --- | --- |
| CCCCCCCCCCCCCCCCCCOCC(COP(=O)([O-])OCC[N+](C)(C)C)OC (configuration not stated) | Met |
| O[C@H]1[C@@H](O)CN[C@@H]1COCCCCCCCC/C=C/c1ccc(Oc2ccccc2)cc1 | Not met |
| CCCCCC/C=C/CCCCCCCCOC[C@H]1NC[C@H](O)[C@@H]1O | Not met |
| CCCCCCCC/C=C\CCCCCCCCOCC[C@H]1NC[C@H](O)[C@@H]1O | Met |
| Cl.O[C@H]1CN[C@H](COCCCCCCCCC/C=C/c2ccc(-c3ccccc3)cc2)C1 | Met |
| CCCCCCCCCCCCCCCCOC[C@H]1NC[C@H](O)[C@@H]1O | Not met |

Hi team, for CCCCCC/C=C\CCCCCCCCOC[C@H]1NC[C@H](O)[C@@H]1O , is the recorded Activity at or above 10%? Met

---

Tested on: BXPC-3
PROTOCOL_DETAILS: Induction of apoptosis in human BxPC3 cells assessed as accumulation at sub-G0/G1 phase at 20 uM after 48 hrs by propidium iodide staining based flow cytometry (reference value: 2.8%)
Format: functional
PARAMETER_MEASURED: Activity (%)
Numbers only, in %.

Here are 3 compounds together with their reported answers.
| COMPOUND | TARGET_ENTITY | Activity, % |
| --- | --- | --- |
| CCCCCCCCCCCCCCCCOC[C@H]1NC[C@H](O)[C@@H]1O | BXPC-3 | 16.9 |
| CCCCCC/C=C/CCCCCCCCOC[C@H]1NC[C@H](O)[C@@H]1O | BXPC-3 | 19.6 |
| CCCCCCCC/C=C\CCCCCCCCOCC[C@H]1NC[C@H](O)[C@@H]1O | BXPC-3 | 32.5 |

Hi team, please reply with Activity for each item in this list.
1. CCCCCCCCCCCCCCCCCCOCC(COP(=O)([O-])OCC[N+](C)(C)C)OC (configuration not stated) [EDELFOSINE]
2. O[C@H]1[C@@H](O)CN[C@@H]1COCCCCCCCC/C=C/c1ccc(Oc2ccccc2)cc1
3. Cl.O[C@H]1CN[C@H](COCCCCCCCCC/C=C/c2ccc(-c3ccccc3)cc2)C1
4. CCCCCC/C=C\CCCCCCCCOC[C@H]1NC[C@H](O)[C@@H]1O

[28.9, 16.2, 59.3, 33.7]

---

PROTOCOL_DETAILS: Induction of apoptosis in HPNE cells assessed as accumulation at sub-G0/G1 phase at 10 uM after 24 hrs by propidium iodide staining based flow cytometry (reference value: 0.6%)
Format: cell-based
ASSAY_CONDITIONS: human
The label depends only on Activity: MET if it is at least 40%, NOT MET if it is smaller.

Some solved cases for reference:
| COMPOUND | ANSWER_LABEL |
| --- | --- |
| CCCCCC/C=C/CCCCCCCCOC[C@H]1NC[C@H](O)[C@@H]1O | NOT MET |
| Cl.O[C@H]1CN[C@H](COCCCCCC/C=C/c2ccc(-c3ccccc3)cc2)C1 | MET |
| Cl.O[C@H]1CN[C@H](COCCCCCCCCC/C=C/c2ccc(Oc3ccccc3)cc2)C1 | MET |

Hi team, for O[C@H]1[C@@H](O)CN[C@@H]1COCCCCCCCC/C=C/c1ccc(Oc2ccccc2)cc1 , is the recorded Activity at or above 40%? NOT MET

Hi team, for CCCCCC/C=C\CCCCCCCCOC[C@H]1NC[C@H](O)[C@@H]1O , is the recorded Activity at or above 40%? NOT MET

Hi team, for CCCCCCCCCCCCCCCCOC[C@H]1NC[C@H](O)[C@@H]1O , is the recorded Activity at or above 40%? NOT MET

Hi team, for Cl.O[C@H]1CN[C@H](COCCCCCCCCC/C=C/c2ccc(-c3ccccc3)cc2)C1 , is the recorded Activity at or above 40%? MET

Hi team, for CCCCCCCCCCCCCCCCCCOCC(COP(=O)([O-])OCC[N+](C)(C)C)OC (stereo not given) , is the recorded Activity at or above 40%? NOT MET

Hi team, for CCCCCCCC/C=C\CCCCCCCCOCC[C@H]1NC[C@H](O)[C@@H]1O , is the recorded Activity at or above 40%? NOT MET

Hi team, for Cl.O[C@H]1CN[C@H](COCCCCCCCC/C=C/c2ccc(Oc3ccccc3)cc2)C1 , is the recorded Activity at or above 40%? MET

---

Test system: BXPC-3
PROTOCOL_DETAILS: Induction of apoptosis in human BxPC3 cells assessed as accumulation at sub-G0/G1 phase at 20 uM after 72 hrs by propidium iodide staining based flow cytometry (reference value: 3.4%)
Type: functional
Under this convention, Condition met denotes Activity strictly below 40% and Condition not met denotes Activity at or above 40%.

| SMILES_INPUT | ANSWER_LABEL |
| --- | --- |
| Cl.O[C@H]1CN[C@H](COCCCCCCCCC/C=C/c2ccc(-c3ccccc3)cc2)C1 | Condition not met |
| CCCCCC/C=C\CCCCCCCCOC[C@H]1NC[C@H](O)[C@@H]1O | Condition not met |
| CCCCCCCCCCCCCCCCOC[C@H]1NC[C@H](O)[C@@H]1O | Condition met |
| CCCCCC/C=C/CCCCCCCCOC[C@H]1NC[C@H](O)[C@@H]1O | Condition met |

Consider O[C@H]1[C@@H](O)CN[C@@H]1COCCCCCCCC/C=C/c1ccc(Oc2ccccc2)cc1 . Does its Activity lie strictly below 40%? Condition met

Consider CCCCCCCC/C=C\CCCCCCCCOCC[C@H]1NC[C@H](O)[C@@H]1O . Does its Activity lie strictly below 40%? Condition not met

---

System: PK9
PROTOCOL_DETAILS: Induction of apoptosis in human PK9 cells assessed as accumulation at sub-G0/G1 phase at 10 uM after 24 hrs by propidium iodide staining based flow cytometry (reference value: 2.2%)
Format: functional
PARAMETER_MEASURED: Activity
In your response, put the unit directly after the numeric value.

| SMILES_INPUT | Activity |
| --- | --- |
| CCCCCCCC/C=C\CCCCCCCCOCC[C@H]1NC[C@H](O)[C@@H]1O | 2.8% |
| CCCCCCCCCCCCCCCCOC[C@H]1NC[C@H](O)[C@@H]1O | 2% |
| Cl.O[C@H]1CN[C@H](COCCCCCC/C=C/c2ccc(-c3ccccc3)cc2)C1 | 6.9% |

Hi team, please reply with Activity for each item in this list.
1. Cl.O[C@H]1CN[C@H](COCCCCCCCCC/C=C/c2ccc(Oc3ccccc3)cc2)C1
2. CCCCCC/C=C/CCCCCCCCOC[C@H]1NC[C@H](O)[C@@H]1O

1. 4.3%
2. 3.4%

---

PROTOCOL_DETAILS: Induction of apoptosis in HPNE cells at 5 to 40 uM after 24 to 72 hrs by Annexin V/7-AAD staining based flow cytometry
Type: cell-based
ASSAY_CONDITIONS: human

| SMILES_INPUT | Activity |
| --- | --- |
| Cl.NCC(=O)N1CCC[C@H]1COCCCCCC/C=C/c1ccc(-c2ccccc2)cc1 | Toxic |
| CCCCCCCC/C=C\CCCCCCCCOC[C@@H]1CCCN1C(=O)[C@@H]1CCCN1.Cl | Toxic |
| Cl.NCC(=O)N1CCC[C@H]1COCCCCCCCCC/C=C/c1ccc(-c2ccccc2)cc1 | Toxic |
| CCCCCCCC/C=C\CCCCCCCCOC[C@@H]1CCCN1C(=O)CN.Cl | Toxic |

---

Test system: Fibroblast
PROTOCOL_DETAILS: Induction of apoptosis in human primary fibroblasts at 20 uM after 24 hrs by propidium iodide staining based flow cytometry (reference value: 4.8%)
Type: cell-based
Under this convention, 1 (yes) denotes Activity strictly below 20% and 0 (no) denotes Activity at or above 20%.

Some solved cases for reference:
| COMPOUND | ANSWER_LABEL |
| --- | --- |
| Cl.O[C@H]1CN[C@H](COCCCCCCCC/C=C/c2ccc(Oc3ccccc3)cc2)C1 | 0 (no) |
| Cl.O[C@H]1CN[C@H](COCCCCCCCCC/C=C/c2ccc(-c3ccccc3)cc2)C1 | 1 (yes) |
| CCCCCCCCCCCCCCCCCCOCC(COP(=O)([O-])OCC[N+](C)(C)C)OC (stereo unspecified) [EDELFOSINE] | 1 (yes) |
| CCCCCC/C=C\CCCCCCCCOC[C@H]1NC[C@H](O)[C@@H]1O | 1 (yes) |
| Cl.O[C@H]1CN[C@H](COCCCCCCCCC/C=C/c2ccc(Oc3ccccc3)cc2)C1 | 0 (no) |

Consider Cl.O[C@H]1CN[C@H](COCCCCCC/C=C/c2ccc(-c3ccccc3)cc2)C1 . Does its Activity lie strictly below 20%? 0 (no)
